Molecular target: T1, IL10Rα/IL2Rγ receptor (human) (UniProt Q13651)
T1 sequence (looked up) 1: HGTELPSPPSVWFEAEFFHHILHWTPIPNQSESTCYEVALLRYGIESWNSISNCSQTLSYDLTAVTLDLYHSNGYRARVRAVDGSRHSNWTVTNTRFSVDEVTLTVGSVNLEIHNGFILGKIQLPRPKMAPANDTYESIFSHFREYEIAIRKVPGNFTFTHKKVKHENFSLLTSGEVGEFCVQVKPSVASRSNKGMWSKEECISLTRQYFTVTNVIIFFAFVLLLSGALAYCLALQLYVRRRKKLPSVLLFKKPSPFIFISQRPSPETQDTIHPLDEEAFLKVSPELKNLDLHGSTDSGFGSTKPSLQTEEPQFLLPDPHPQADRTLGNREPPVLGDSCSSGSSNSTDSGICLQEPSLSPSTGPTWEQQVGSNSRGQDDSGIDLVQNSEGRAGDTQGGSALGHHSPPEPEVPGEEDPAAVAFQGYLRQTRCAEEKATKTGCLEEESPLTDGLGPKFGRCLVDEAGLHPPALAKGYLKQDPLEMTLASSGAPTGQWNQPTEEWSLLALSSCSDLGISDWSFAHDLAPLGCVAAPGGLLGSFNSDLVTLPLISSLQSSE
T1 sequence (looked up) 2: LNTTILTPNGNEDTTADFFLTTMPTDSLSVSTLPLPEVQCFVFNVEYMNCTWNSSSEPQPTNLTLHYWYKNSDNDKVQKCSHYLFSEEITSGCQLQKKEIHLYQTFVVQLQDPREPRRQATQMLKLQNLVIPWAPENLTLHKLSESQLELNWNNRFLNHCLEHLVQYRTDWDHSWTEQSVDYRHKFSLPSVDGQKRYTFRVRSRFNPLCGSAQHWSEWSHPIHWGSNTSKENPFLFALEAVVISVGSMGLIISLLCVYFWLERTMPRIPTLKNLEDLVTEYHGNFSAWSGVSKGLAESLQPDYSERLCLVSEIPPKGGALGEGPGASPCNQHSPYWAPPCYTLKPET
Assay: cell-based or functional assay
Kindly state IFNγ secretion, CD8 T cells, at 0.01 µM for each of the entries shown.
Field format: number, assumed pg/mL, no unit text.

# binder hIL10Ra_VHH14 - hIL2Rg_VHH19, linker GS, tag his (bispecific antibody, not shown: small tags and cut ends) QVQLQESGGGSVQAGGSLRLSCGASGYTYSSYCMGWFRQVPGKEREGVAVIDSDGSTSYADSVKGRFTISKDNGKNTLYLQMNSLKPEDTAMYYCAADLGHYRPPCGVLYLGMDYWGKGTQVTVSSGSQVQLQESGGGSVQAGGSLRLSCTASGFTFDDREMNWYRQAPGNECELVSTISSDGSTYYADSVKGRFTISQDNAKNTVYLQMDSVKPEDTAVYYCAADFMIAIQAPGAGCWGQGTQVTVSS ; its IFNγ secretion, CD8 T cells, at 0.01 µM = 122000

# binder hIL10Ra_VHH14 - hIL2Rg_VHH19, No linker, tag his (bispecific antibody, not shown: small tags and cut ends) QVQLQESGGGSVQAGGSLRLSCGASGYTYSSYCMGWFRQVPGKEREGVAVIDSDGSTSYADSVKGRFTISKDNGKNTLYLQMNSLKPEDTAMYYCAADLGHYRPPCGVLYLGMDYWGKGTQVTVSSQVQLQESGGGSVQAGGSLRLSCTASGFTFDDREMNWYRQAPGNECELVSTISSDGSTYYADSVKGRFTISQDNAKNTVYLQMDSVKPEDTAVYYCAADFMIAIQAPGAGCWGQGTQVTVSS ; its IFNγ secretion, CD8 T cells, at 0.01 µM = 111000

# binder hIL10Ra_VHH14 - hIL2Rg_VHH19, linker …, tag his (bispecific antibody, not shown: small tags and cut ends) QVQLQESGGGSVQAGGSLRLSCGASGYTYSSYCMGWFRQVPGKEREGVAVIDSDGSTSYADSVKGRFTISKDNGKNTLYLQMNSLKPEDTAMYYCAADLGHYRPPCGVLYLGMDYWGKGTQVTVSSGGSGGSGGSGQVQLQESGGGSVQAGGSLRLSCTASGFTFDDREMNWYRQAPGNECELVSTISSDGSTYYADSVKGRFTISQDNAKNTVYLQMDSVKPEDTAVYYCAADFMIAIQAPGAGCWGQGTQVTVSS ; its IFNγ secretion, CD8 T cells, at 0.01 µM = 127000

Just for reference, patent US20250163162A1 is where these values come from.
